These entries and their values trace back to paper PMC9019904.

Task for the reader: assign each of the following compounds its reported 3. Nuclear DNA Intensity (% control).
- Tested on: BV2 (mouse microglia) cell line
- assay-name: pHrodo-myelin phagocytosis/cell viability high content imaging assay: viability (cell count, nuclear area, nuclear intensity)
- assay-context: BV2 cells, 10 uM compound, 48 hours treatment
Answers are plain numbers, in % control.

These solved cases illustrate the format of a correct answer.
compound	data-value
Cc1cc(Nc2ncc(Cl)c(Nc3ccccc3S(=O)(=O)C(C)C)n2)c(OC(C)C)cc1C1CCNCC1 [UNC10244729A]	49.1
COc1ccc(CCN2CCN(CCCc3ccccc3)CC2)cc1OC.Cl.Cl [UNC10302848A]	98.2
Clc1ccc(N/N=C(\c2ccccc2)c2ccccn2)nc1 [UNC3735A]	94.7

The following compounds each have a reported value; give each one's 3. Nuclear DNA Intensity (% control).
1. Cc1cc(C)nc(NC(=S)N2CCN(Cc3ccc(C(F)(F)F)cc3)CC2)c1 [UNC10302844A]
2. CCOC(=O)N1c2ccc(C(F)(F)F)cc2[C@@H](N(Cc2cc(C(F)(F)F)cc(C(F)(F)F)c2)C(=O)OC)C[C@H]1CC [UNC10302851A]
3. O=c1[nH]c(=O)n([C@H]2C[C@H](O)[C@@H](CO)O2)cc1/C=C/Br [UNC10100235A]

*A*
1: 103.9; 2: 100.1; 3: 94.6
